assayedSystem: Cathepsin S (Homo sapiens, UniProt P25774)
Sequence (P25774 whole entry): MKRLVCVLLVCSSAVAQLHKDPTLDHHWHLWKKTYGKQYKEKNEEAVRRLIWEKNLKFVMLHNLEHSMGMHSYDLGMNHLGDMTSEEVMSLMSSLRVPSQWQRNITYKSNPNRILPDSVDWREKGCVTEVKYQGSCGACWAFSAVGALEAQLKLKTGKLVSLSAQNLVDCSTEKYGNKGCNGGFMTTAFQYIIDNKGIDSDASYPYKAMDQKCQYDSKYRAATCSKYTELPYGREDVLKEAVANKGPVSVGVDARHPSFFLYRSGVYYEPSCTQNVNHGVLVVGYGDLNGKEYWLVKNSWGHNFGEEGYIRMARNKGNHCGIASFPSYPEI
assayEndpoint: Ki (nM)
Express your answer in nM, writing the number without its unit.

C[C@@H](OCc1ccccc1)[C@@H](C#N)NC(=O)[C@H](Cc1cccc(Cl)c1)NS(=O)(=O)c1cccc(-c2ccccc2)c1    631
C[C@@H](OCc1ccccc1)[C@@H](C#N)NC(=O)[C@H](Cc1cccc(Cl)c1)NS(=O)(=O)c1cccc(Br)c1    79.4

Field: next molecule
Enquiry: Give Ki (Cathepsin S (Homo sapiens, UniProt P25774)) of the following molecule: C[C@@H](OCc1ccccc1)[C@@H](C#N)NC(=O)[C@H](Cc1cccc(Br)c1)NC(=O)c1ccc(-c2cncnc2)cc1
Return: 31.6
